These entries and their values trace back to patent US20230126391A1.

test system: FKBP52 (Homo sapiens)
Sequence (Q02790 whole entry): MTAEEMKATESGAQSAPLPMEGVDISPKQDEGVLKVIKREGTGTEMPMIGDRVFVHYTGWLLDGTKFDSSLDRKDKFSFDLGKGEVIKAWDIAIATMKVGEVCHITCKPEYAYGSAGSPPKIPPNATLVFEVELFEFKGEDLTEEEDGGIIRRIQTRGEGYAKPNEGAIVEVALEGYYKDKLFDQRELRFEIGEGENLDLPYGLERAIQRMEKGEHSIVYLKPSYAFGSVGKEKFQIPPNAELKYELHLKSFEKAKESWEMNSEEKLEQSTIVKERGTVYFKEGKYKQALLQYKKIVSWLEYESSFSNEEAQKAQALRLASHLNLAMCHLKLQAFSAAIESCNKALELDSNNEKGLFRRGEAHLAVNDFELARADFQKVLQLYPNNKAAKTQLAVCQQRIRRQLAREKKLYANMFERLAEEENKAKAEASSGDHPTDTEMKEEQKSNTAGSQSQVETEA
assay summary: FP assay, binding to human FKBPs (Table 1)
applied conditions: fluorescence polarization assay
assay endpoint: Ki (nM)
The answer is to be given in nM; state only the numeric part.

compound: C=C[C@H]1CN([C@@H](C)COC)C(=O)[C@@H]2CCC[C@H]1N2S(=O)(=O)c1cc(Cl)cc(Cl)c1 [22b]
Ki, nM: 205
--
compound: C=C[C@H]1CN([C@@H](C)COCc2ccccc2)C(=O)[C@@H]2CCC[C@H]1N2S(=O)(=O)c1ccc2ncsc2c1 [16a]
Ki, nM: 316

Continue with the compound presented below.
So the reported Ki for C=C[C@H]1CN(Cc2cn(-c3ccc(OC)cc3)nn2)C(=O)[C@@H]2CCC[C@H]1N2S(=O)(=O)c1cc(Cl)cc(Cl)c1 [19a] , on FKBP52 (Homo sapiens), turned out to be 361
